- Assay info: Plasma pharmacokinetics after multiple doses (cycle 2, steady state), LC-MS/MS
- Format: in vivo, human
- Condition summary: human, plasma, oral, 2 mg, multiple dose, steady state; Schedule C (7 days on, 14 days off), 2.0 mg, n = 5; read-out: AUC(0–T), GM (%CV)
Metric name: AUC(0-t) (ng·h/mL)
Write it as a number; the unit ng·h/mL goes unstated.

Q. Return AUC(0-t) for the following compound: Cc1nnn(C)c1-c1cnc2c3ccc(C(C)(C)O)cc3n([C@H](c3ccccc3)C3CCOCC3)c2c1 [BMS-986158]
A. 19900

---

- Assay info: Plasma pharmacokinetics after single dose (C1D1), LC-MS/MS
- Type: in vivo, human
- Condition summary: human, plasma, oral, 2 mg, cohort Schedule B, 2.0 mg, n = 1, read-out: AUC(0–24), GM (%CV)
Metric name: AUC(0-t) (ng·h/mL)
Write it as a number; the unit ng·h/mL goes unstated.

Q. Return AUC(0-t) for the following compound: Cc1nnn(C)c1-c1cnc2c3ccc(C(C)(C)O)cc3n([C@H](c3ccccc3)C3CCOCC3)c2c1
A. 2360
